The entries below are paired with their reported melting point.

smiles_text=O=C(C=Cc1cccc(Oc2ccccc2)c1)c1cccs1 value_type="melting point" recorded_measurement="48 to 50 °C"
smiles_text=O=C(c1ccccc1)c1c[nH]cc1-c1ccc2[nH]ccc2c1 value_type="melting point" recorded_measurement="247 to 248 °C"

Now, please, on to the next compound.
Reported melting point for O=C(c1ccccc1)c1c[nH]cc1-c1cccc2ccccc12 was 270 to 272 °C

###

experiment: Lipophilicity as RM values by reverse-phase thin layer chromatography (RPTLC); assay type: physicochemical; details: methanol/water 75/25 v/v with ammonia drops
value-type: RM

smiles_text=CN(C)c1ccc(/C=C/c2c[nH]cc2C(=O)c2ccccc2)cc1 recorded_measurement=0.073

(P) O=C(c1cccs1)c1c[nH]cc1-c1ccc(OCc2ccc(Br)cc2)cc1
(Q) O=C(c1cccs1)c1c[nH]cc1-c1cccc(Oc2ccccc2)c1
(R) O=C(c1ccccc1)c1c[nH]cc1-c1ccc2[nH]ccc2c1
(S) O=C(c1ccccc1)c1c[nH]cc1-c1cccc2ccccc12
Ask | Order these by RM, descending, and give the full ranking. I would appreciate it if you listed the labels in the requested order.
Reply | Q, P, S, R
(Q: 0.091, P: −0.061, S: −0.149, R: −0.685)
